From: patent US9944635B2

Method: Metabolic stability in human liver microsomes (in vitro half-life)
Type: in vitro ADME
Study conditions: pH 7.4, Table 3, average of runs 9-12, read-out: Half-life (t½) AVE ± SD
Protocol: Human liver microsomes (20 mg/mL) are obtained from Xenotech, LLC (Lenexa, Kans.). β-nicotinamide adenine dinucleotide phosphate, reduced form (NADPH), magnesium chloride (MgCl2), and dimethyl sulfoxide (DMSO) are purchased from Sigma-Aldrich. 7.5 mM stock solutions of test compounds were prepared in DMSO. […] Supernatants were transferred to another 96-well plate and analyzed for amounts of parent remaining by LC-MS/MS using an Applied Bio-systems API 4000 mass spectrometer. […]
Recorded endpoint: half-life at 1 μM (min)

* [2H]C1([2H])C(C(=O)N2CC(=O)N3CCc4ccccc4[C@@H]3C2)C([2H])([2H])C([2H])([2H])C([2H])([2H])C1([2H])[2H] | 50
* [2H]C1([2H])CC(C(=O)N2CC(=O)N3CCc4ccccc4[C@@H]3C2)CC([2H])([2H])C1([2H])[2H] | 44.2
* [2H]C1([2H])CCC(C(=O)N2CC(=O)N3CCc4ccccc4[C@@H]3C2)CC1 | 49.4

I = [2H]C1([2H])C([2H])([2H])C([2H])([2H])C([2H])(C(=O)N2CC(=O)N3CCc4ccccc4[C@@H]3C2)C([2H])([2H])C1([2H])[2H]
II = O=C(C1CCCCC1)N1CC(=O)N2CCc3ccccc3C2C1 (centres unmarked) [Praziquantel, reference compound]
Query: Please compare: I and II . Report which one has the smaller half-life at 1 μM value. Choose, then provide that item's label.
Result: II
(II: 31.7 min, I: 51.8 min)
